PROCEDURE_DETAILS: soluble on expression in E. coli; label from the status in PepcDB or PDB records
MEASURED_QUANTITY: soluble on expression in E. coli

{"RESIDUES": "MSLSNQEPIANYKFNYKTTANKVMKNINLSGKTIIITGGYSGIGLEMTKQLSRAGAKIIIPARRMEVAKKNLSKIKNIDILPLDLTNPESIHQFAESFLQNNSKLDILINSAGLMYLPLKRDSRGIEYHFATNHLGHYQLTLELLPALKNAKISRVINLSSRAQQMTPLLEDWNFEKIENYNPQIGYQQSKTANVLFSIKLDELGKKYGIRSFAVHPGMIPMTNIGRQNSPITPWLRYLADYFKLIHIPVFFNALKSGFDRSKYRYLKTIAQGAATPLWASTSPDLEGKGGLYCEDLNIARLMTSEEANNFSGGLRPHAIDHNDADRLWQISKNITGLDEGHHHHHH", "RECORDED_RESULT": "not soluble"}
{"RESIDUES": "MSLLWKKAQEETHDYIIRKADPSDAAGIISCMQSVMDERIYLVGEYYLLSERAEQERIKSLDDLTLVCVIDRKVVGVLTVQRGIYRKNRHTGMLGIAIMAGHRHKGLGTRMIKEAILWCEDQGIKKLNLEVFSTNVNAIKTYEKVGFEVEGKRRKQFLIDGQYVDDVLMTYYVDKSLKEEGHHHHHH", "RECORDED_RESULT": "soluble"}
{"RESIDUES": "MGSDKIHHHHHHMGQKVHPRGFRLGLSADWQAKWFNEKNYKEWLLEDEEIRKIIKNKYYHAGISEIYVERPDAERINITVKTARPGIIIGRKGSEITSLREELERKFNRRVVINIEEIKTPELDAQLVAESIASRIEKRASYKVAMKRAIMNAMRKGAQGIKVMVAGRLGGAEIARREWYLRGRLPLQKIKAIIDYGTATAWTKYGTIGIKVWIYKGDADI", "RECORDED_RESULT": "not soluble"}
{"RESIDUES": "MSTGSTKLRNVDAVIKKGKPFSILLLGTDTGALGRGKDFSARTDTMIVATINPKKESMTLTSIPRDTQVMIDGQSQKINAAYTIGGASGAVKSVEKLLDVPIDFYVLLNMGGLKQIINAMGGVTVTPKLTFKYGNANVKKGVKIKLNGAAALDYSRMRYDDPQGDYGRQKRQQQVIMAMVSQSNSLGSIANIEKITKKLAKNMRTDLTWNDMVALDTKYKNASHHAKSYTVQGTDATIDGLSYQVASSSERYKNSKRIRKALGLSNSNLTESVFSETASITTGSSSSSSSSSSTTTSSDTTTYGTSTTQDTTTQDQTTTQDQTTTNQYLEHHHHHH", "RECORDED_RESULT": "soluble"}
{"RESIDUES": "MGSDKIHHHHHHMQLKLSSVSKKFDHKIILEDTSFTFEQGKIYGLLGRNGAGKTTLFNCIARNLTLDGGSIQFVKDEIAFDYDNTDIGFTQTYPQLPAFMTAYEFVRFYMDIHKDKLKSPRSPEEWLNLVGIGEEDRHRLLKDFSHGMQNKVQLLLSLIVQPPVLLLDEPLTSFDPVAAHEFKQLIREAKKDSVIIFSTHILQLAQDLCDEIVLLHHQELQAVPSDKLHDPDFEQEVVTLLTAD", "RECORDED_RESULT": "not soluble"}

Record soluble on expression in E. coli per entry; entries follow.
1. MMKFKKCLLPVAMLASFTLAGCQSNADDHAADVYQTDQLNTKQETKTVNIISILPAKVAVDNSQNKRNAQAFGALIGAVAGGVIGHNVGSGSNSGTTAGAVGGGAVGAAAGSMVNDKTLVEGVSLTYKEGTKVYTSTQVGKECQFTTGLAVVITTTYNETRIQPNTKCPEKS
2. SREEMSLGCQEAFEIFKRDHADSVTIDDNKQILKQRFSEAKALGESINEARSKIGHLKEEITQRHIQQVALGISENMAVPLMPDQQEEKLRSQLEEEKRRYKTMFTRLKALKVEIEHLQLLMDKAKVKLQKEFEVWWAEEATNLQVNSPAVNSLDHTKPFLQTSDSQHEWSQLLSNKSSGGWEVQDQGTGRFDVCDVNARKILPSPCPSPHSQKQSSTSTPLEDSIPKRPVSSIPLTGDSQTDSDIIAFIKARQSILQKQCLGSN
3. PIAQIHILEGRSDEQKETLIREVSEAISRSLDAPLTSVRVIITEMAKGHFGIGGELASKVRR
4. MAHHHHHHMPCRKIIIDTDCGGDDAIGIMTALADPNTDVIAMTAVWGNVNVNQGMENIGKLLDVFERDIPFYKGAEAPLVSDPETVQWGGFGKDGFGDADFPPSARVLVQSKTHAALAITELLRAAKPDEDAVYQLVCLGPLTNIALAMRLDPEVFHVLGSETEPAITIMGGASEAKGNSNLTSEFNMHCDPEAAYIVFNQRSMRPVRVVSWEVTVDCSMTWTFFDKWIGRQENGKKQQNRFQVFIEKVFQRLETFTRPLPDGTKANTGDAEATQDNTCVIPDAVAVVAALYPESILDRFITYCTVELHGRETRGQTCLDWYGTKQSMAKRGRWCNCELITRVDNARFLEAMNGILEYNV

Completion:
not soluble
soluble
soluble
not soluble

Record soluble on expression in E. coli per entry; entries follow.
1. ITASGENRNAINDLLGAMCYDEETARTYQGYVAELDNPHTPETEEYGISSFVFKGDRPFDRQRLIAALRSTRGIVRSKGHCWISDRIDMVQVWHQAGPDLRIAPAGYWQSAGITPSNEIVVIGVNFDHAQAQQLLNDAMLSDSEVQQLLSTADAAKS
2. MNRSNAQTERGRRWYVGDRLHVDVRGLPCPEPLVTVLRLIDGSEVGDGLTALVSQEPLLLYPELDARGCRYRMVTPAGDTLLRDGEVVLEIERSK
3. MWHGMGDCCCNPLSMGSVKKLFEEQIPGVYVHSLQLGSSITKDIEHGFYANTNELVYMACIKIKNDPELKNGYNAIGFSQGAQFLRAVAQRCPNPPMKNLVSVGGQHQGVFGAPYCIGDNIMCNGVRRLIDLGAYLPFVQKRVVQAQYWHDPNQVEEYKKRSIFLADINNENNNNPTYKRNLLSLKNLVLVKFNQDHMVVPKDSSWFGFYKDGDIDTILPMNETDLYKEDRIGLKKLHESGRIHFMDVDGDHLQIPRSVLVNDIIKKYFM

Completion:
not soluble
not soluble
not soluble
